molecular target: UGT1A4 (Homo sapiens, UniProt P22310); construct: The typical incubation mixture contained human liver microsomes (0.5 mg/mL) along with SKN (10 μM); tissue BD Gentest; host or cells: human liver microsomes; experiment: UGT inhibition in human liver microsomes, trifluoperazine N-glucuronidation (TFPG); assay type: in vitro ADME; conditions: pH 7.4, probe trifluoperazine (200 μM), inhibitor 10 µM, human liver microsomes 0.5 mg/mL, read-out: Inhibition (%)
Sequence (P22310 29-534): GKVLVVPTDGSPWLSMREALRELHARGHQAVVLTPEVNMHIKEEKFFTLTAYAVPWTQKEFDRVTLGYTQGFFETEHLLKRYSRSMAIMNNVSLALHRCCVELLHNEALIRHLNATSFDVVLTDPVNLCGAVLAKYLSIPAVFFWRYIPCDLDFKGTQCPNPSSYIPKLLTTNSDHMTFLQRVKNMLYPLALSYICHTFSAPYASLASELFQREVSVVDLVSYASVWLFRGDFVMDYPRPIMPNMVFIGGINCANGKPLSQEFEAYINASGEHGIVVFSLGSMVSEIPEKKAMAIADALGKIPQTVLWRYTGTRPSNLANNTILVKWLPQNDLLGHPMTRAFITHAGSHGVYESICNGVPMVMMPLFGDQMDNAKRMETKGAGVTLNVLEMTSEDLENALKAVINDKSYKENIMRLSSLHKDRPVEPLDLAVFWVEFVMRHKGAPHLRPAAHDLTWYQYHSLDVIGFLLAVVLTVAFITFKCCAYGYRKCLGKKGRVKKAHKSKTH
endpoint.label: inhibition at 10 μM (%)

{"compound": "O=C1C[C@@H](c2ccc(O)c(O)c2)Oc2cc(O)cc(O)c21 [Eriodictyol, 3′-hydroxynaringenin]", "inhibition at 10 μM / %": 13.7}
{"compound": "O=C1C[C@@H](c2ccc(O)cc2)Oc2cc(O)cc(O)c21 [Naringenin]", "inhibition at 10 μM / %": 9.6}

---

target: CYP3A4 (Homo sapiens, UniProt P08684); assay: CYP inhibition in human liver microsomes, testosterone 6β-hydroxylation (TSTHY); assay type: in vitro ADME; details: liver microsomes, pH 7.4, probe testosterone (6β-hydroxylation, TSTHY), 200 μM, SKN 10 μM, 15 min pre-incubation, read-out: % Inhibition in Pre-Incubation
Sequence (P08684 whole entry): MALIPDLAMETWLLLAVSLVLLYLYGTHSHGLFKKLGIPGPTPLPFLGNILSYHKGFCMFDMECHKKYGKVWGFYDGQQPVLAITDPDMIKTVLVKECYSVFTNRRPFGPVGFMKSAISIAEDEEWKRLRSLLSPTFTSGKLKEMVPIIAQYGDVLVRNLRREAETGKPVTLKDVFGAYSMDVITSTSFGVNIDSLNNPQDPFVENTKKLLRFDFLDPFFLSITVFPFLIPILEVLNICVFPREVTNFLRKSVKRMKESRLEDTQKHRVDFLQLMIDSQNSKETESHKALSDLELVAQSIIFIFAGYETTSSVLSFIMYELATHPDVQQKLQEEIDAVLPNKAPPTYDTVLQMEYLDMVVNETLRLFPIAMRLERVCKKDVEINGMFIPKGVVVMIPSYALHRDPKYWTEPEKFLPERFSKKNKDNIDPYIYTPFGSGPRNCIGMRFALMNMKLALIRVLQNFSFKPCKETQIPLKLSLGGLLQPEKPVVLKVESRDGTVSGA
endpoint.label: inhibition at 60 min, 10 µM (%)
// return numeric value only (unit: %, not printed)

Data point: COc1cc(O)c2c(c1)OC(c1ccc(O)cc1)CC2=O (racemic) [SKN, (+/−) 7-O-methylnaringenin] ; inhibition at 60 min, 10 µM = 12.6

---

test: UDPGA-dependent metabolic stability in mouse liver microsomes; format: in vitro ADME; settings: mouse, pH 7.4, mouse liver microsomes, NADPH +, read-out: CLint, hepatic
endpoint.label: CLint scaled at 100 µM (L/h/kg)
Numeric answer only, unit L/h/kg assumed.

// CLint scaled at 100 µM value for COc1cc(O)c2c(c1)OC(c1ccc(O)cc1)CC2=O (racemic) [SKN, (+/−) 7-O-methylnaringenin] : 197

---

target: UGT1A4 (Homo sapiens, UniProt P22310); construct: The typical incubation mixture contained human liver microsomes (0.5 mg/mL) along with SKN (10 μM); tissue BD Gentest; host or cells: human liver microsomes; experiment: UGT inhibition in human liver microsomes, trifluoperazine N-glucuronidation (TFPG); type: in vitro ADME; conditions: pH 7.4, probe trifluoperazine (200 μM), SKN 10 μM, 15 min pre-incubation, read-out: % Inhibition in Pre-Incubation
endpoint.label: inhibition at 10 μM (%)
The figure you give is taken to be in %; do not add the unit.

inhibition at 10 μM recorded for this compound, COc1cc(O)c2c(c1)OC(c1ccc(O)cc1)CC2=O (racemic) [SKN, (+/−) 7-O-methylnaringenin] , is 8.7

---

target: UniProt:P20813; assay: CYP inhibition in human liver microsomes, bupropion hydroxylation (BPHY); assay type: in vitro ADME; settings: human liver microsomes, pH 7.4, probe bupropion (hydroxylation, BPHY), 200 µM, inhibitor 10 M [sic], human liver microsomes 0.5 mg/mL, read-out: Inhibition (%)
Sequence (P20813 whole entry): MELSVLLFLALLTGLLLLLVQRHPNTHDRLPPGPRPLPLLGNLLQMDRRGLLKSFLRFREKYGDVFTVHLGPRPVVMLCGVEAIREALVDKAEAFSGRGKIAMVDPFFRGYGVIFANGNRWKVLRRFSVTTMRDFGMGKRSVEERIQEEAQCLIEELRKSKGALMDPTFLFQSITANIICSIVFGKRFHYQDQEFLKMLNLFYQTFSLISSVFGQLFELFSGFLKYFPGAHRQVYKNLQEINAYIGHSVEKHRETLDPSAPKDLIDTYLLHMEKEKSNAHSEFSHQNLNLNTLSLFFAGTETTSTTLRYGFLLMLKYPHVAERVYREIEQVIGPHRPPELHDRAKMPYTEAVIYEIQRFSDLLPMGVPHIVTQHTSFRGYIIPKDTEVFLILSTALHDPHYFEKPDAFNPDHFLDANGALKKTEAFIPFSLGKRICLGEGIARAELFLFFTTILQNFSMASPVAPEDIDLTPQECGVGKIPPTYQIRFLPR
endpoint.label: inhibition at 60 min, 10 µM (%)

(I) O=C1C[C@@H](c2ccc(O)c(O)c2)Oc2cc(O)cc(O)c21 [Eriodictyol, 3′-hydroxynaringenin]
(II) O=C1C[C@@H](c2ccc(O)cc2)Oc2cc(O)cc(O)c21
(Q) Sorting by inhibition at 60 min, 10 µM in descending order, would I or II appear first? To answer, give the label that identifies your chosen option.
(A) II
(II: 24%, I: 16.1%)
